Molecular target: ATF6 (Homo sapiens, UniProt P18850)
Sequence (P18850 306-369 limits assumed): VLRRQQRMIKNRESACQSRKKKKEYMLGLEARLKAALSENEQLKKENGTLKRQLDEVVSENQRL
Test: Direct-binding FRET assay
Design: made in house
Settings: 23°C; C-terminal fluorescein design as donor, TAMRA target titrated
Where no end group is shown, it is not given here.
PARAMETER: Kd

Form field Kd, entry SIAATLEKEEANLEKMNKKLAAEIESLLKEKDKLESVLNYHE [JUN-d1] : > 1 µM

---

Biological target: ATF5 (Homo sapiens)
Construct: made in house
Sequence (Q9Y2D1 208-271 limits assumed): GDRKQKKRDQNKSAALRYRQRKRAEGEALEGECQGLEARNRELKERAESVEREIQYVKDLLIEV
Test: Direct-binding FRET assay
Conditions: 37°C; N-terminal rhodamine design; mean or single; read-out: Kd
Method: The direct binding assay was performed manually in 384-well plates and is similar to a previously described assay. Wells were filled with 20 μL of 1 mM TCEP-HCl. […] Briefly, the Kd of the designed peptide homodimer was experimentally determined and used with previously determined target homodimer Kd values to determine the heterodimer Kd. […] A minimum 15% change in the donor fluorescence upon titrating the acceptor peptide from 0 to 1000 nM was required for a fit to be attempted. […]
pKd: −log10 of the molar value. Where no end group is shown, it is not given here.
PARAMETER: pKd

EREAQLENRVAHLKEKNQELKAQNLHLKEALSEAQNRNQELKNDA [XBP1-d1] :: < 6.00

Here is the next item to consider.
Form field pKd, entry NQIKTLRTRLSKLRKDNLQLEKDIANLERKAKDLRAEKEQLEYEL [ATF4-d1] : < 6.00

---

Target: NFE2L1 (Homo sapiens, UniProt Q14494)
Sequence (Q14494 654-717 limits assumed): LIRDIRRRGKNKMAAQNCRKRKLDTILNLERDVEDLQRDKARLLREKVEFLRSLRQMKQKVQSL
Experiment: Direct-binding FRET assay
Design: made in house
Details: 4°C; C-terminal rhodamine design; mean or single; read-out: Kd
pKd: −log10 of the molar value. Where no end group is shown, it is not given here.
PARAMETER: pKd

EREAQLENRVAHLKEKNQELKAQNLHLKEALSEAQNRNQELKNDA [XBP1-d1] :: < 6.00
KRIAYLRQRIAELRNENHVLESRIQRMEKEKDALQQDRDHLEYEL [ATF5-d1] :: < 5.30

Here is the next item to consider.
Form field pKd, entry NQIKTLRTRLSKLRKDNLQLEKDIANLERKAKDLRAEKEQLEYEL [ATF4-d1] : < 5.30

---

Biological target: ATF6B (Homo sapiens, UniProt Q99941)
Sequence (Q99941 325-388 limits assumed): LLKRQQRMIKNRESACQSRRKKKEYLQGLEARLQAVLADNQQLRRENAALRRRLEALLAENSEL
Assay: Direct-binding FRET assay
Parameters: made in house
Settings: Kd, 23°C; N-terminal rhodamine design; mean or single
Where no end group is shown, it is not given here.
PARAMETER: Kd

Form field Kd, entry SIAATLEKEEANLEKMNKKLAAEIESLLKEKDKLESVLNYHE [JUN-d1] : > 1000 nM

---

We begin with a simple list: items and their reported pKd.
Target: ATF2 (Homo sapiens)
Construct: made in house
Sequence (P15336 352-415 limits assumed): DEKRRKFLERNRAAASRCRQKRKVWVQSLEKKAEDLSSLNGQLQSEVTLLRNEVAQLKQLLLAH
Experiment: Direct-binding FRET assay
Settings: 4°C; C-terminal fluorescein design as donor, TAMRA target titrated; read-out: Kd
pKd: −log10 of the molar value. Where no end group is shown, it is not given here.

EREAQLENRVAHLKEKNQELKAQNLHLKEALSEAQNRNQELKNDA [XBP1-d1] :: < 6.00

Here is the next item to consider.
Form field pKd, entry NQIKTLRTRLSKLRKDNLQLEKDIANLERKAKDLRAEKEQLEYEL [ATF4-d1] : < 5.30
